Listed next: entries and their corresponding viability at 10 µM.
# test protocol: in vitro
# setup conditions: human
Hi, when you answer, please include the unit after the number. Thanks!

molecule="C[C@@H]1C[C@@H]([C@H](O)CC2CC(=O)NC(=O)C2)C(=O)[C@@H](C)C1 [Cycloheximide]" measured_attribute="viability at 10 µM" result=94%

Proceed to the following item.
Query :: Name the recorded viability at 10 µM of the molecule listed here: `CC(C)(C)c1cc(C=C(C#N)C#N)cc(C(C)(C)C)c1O`
Result :: 105%

====

# Test system: SFV E1 trimer formation
# setup conditions: HeLa Kyoto, MOI 100; Chloroquine 100 μM
measured attribute: SFV E1 trimer formation

compound="O=C(Nc1ccc([N+](=O)[O-])cc1Cl)c1cc(Cl)ccc1O [Niclosamide]" system_name="SFV E1 trimer formation" result="No trimers were observed"
compound="CC(C)(C)c1cc(C=C(C#N)C#N)cc(C(C)(C)C)c1O [Tyrphostin A9]" system_name="SFV E1 trimer formation" result="No trimers were observed"

====

# test protocol: in vitro
# setup conditions: human
Where a name gives a salt, the structure may show the parent alone.
measured attribute: viability at 10 µM (%)
Give the value, in units of %, as a plain number.

compound="CCCCN(CCCC)CCC(O)c1cc2c(Cl)cc(Cl)cc2c2cc(C(F)(F)F)ccc12 (stereo not drawn) [Halofantrine, Halofantrine hydrochloride]" recorded_number=89.4
compound="Clc1cc(Cl)c(OCC#CI)cc1Cl [Haloprogin]" recorded_number=104

Proceed to the following item.
Query :: Name the recorded viability at 10 µM of the compound listed here: CN1CCN(CCCN2c3ccccc3Sc3ccc(C(F)(F)F)cc32)CC1 [Trifluoperazine dihydrochloride]
Result :: 0.13

====

Listed next: entries and their corresponding viability at 10 µM.
# test protocol: in vitro
# setup conditions: human
Structures can show the parent of a compound that is named as a salt.
Give the value, in units of %, as a plain number.

compound="CC(C)COCC(CN(Cc1ccccc1)c1ccccc1)N1CCCC1 (centres unmarked) [Bepridil, Bepridil hydrochloride]" measured_attribute="viability at 10 µM" value_units=% recorded_number=48.7
compound="O=C1NCCN1CCN1CCC(c2cn(-c3ccc(F)cc3)c3ccc(Cl)cc23)CC1 [Sertindole]" measured_attribute="viability at 10 µM" value_units=% recorded_number=26.6
compound="Nc1ncn([C@@H]2O[C@H](CO)[C@@H](O)[C@H]2O)c(=O)n1 [5-azacytidine]" measured_attribute="viability at 10 µM" value_units=% recorded_number=106
compound="Nc1ccn([C@@H]2O[C@H](CO)[C@@H](O)C2(F)F)c(=O)n1 [Gemcitabine]" measured_attribute="viability at 10 µM" value_units=% recorded_number=61.8
compound="CSc1ccc2c(c1)C(N1CCN(C)CC1)Cc1ccccc1S2 (centres unmarked) [Methiothepin mesylate]" measured_attribute="viability at 10 µM" value_units=% recorded_number=0.1
compound="Nc1c2ccccc2nc2ccccc12 [Aminacrine]" measured_attribute="viability at 10 µM" value_units=% recorded_number=23.3
compound="CNc1ccc2oc(C[C@H]3O[C@@]4(CC[C@H]3C)O[C@H]([C@H](C)C(=O)c3ccc[nH]3)[C@H](C)C[C@H]4C)nc2c1C(=O)O [Calcimycin]" measured_attribute="viability at 10 µM" value_units=% recorded_number=40

Proceed to the following item.
Query :: Name the recorded viability at 10 µM of the compound listed here: CCN(CC)CCOc1ccc(C(=C(Cl)c2ccccc2)c2ccccc2)cc1 [Clomiphene, Clomiphene citrate (Z,E)]
Result :: 41.8

====

Listed next: entries and their corresponding IC50.
# Test system: RABV VLP
# test protocol: microbe, parasite or virus in culture
# Type: cell-based, rabies virus
# setup conditions: read-out: IC50 RABV
Give the value, in units of µM, as a plain number.

Consider the reported IC50 for these molecules:
structure_smiles_string=O=[N+]([O-])c1ccc2c(c1)S(=O)(=O)C=C2 measured_attribute=IC50 value_units=µM recorded_number=3.2
structure_smiles_string=Cc1ccc(S(=O)(=O)N[C@@H](Cc2ccccc2)C(=O)CCl)cc1 measured_attribute=IC50 value_units=µM recorded_number=15

Proceed to the following item.
Query :: Name the recorded IC50 of the molecule listed here: `CC(=O)/C=C1\C(=O)N(C)c2ccccc21`
Result :: 21.6

====

# test protocol: in vitro
# setup conditions: human
Where a name gives a salt, the structure may show the parent alone.
measured attribute: viability at 10 µM

Consider the reported viability at 10 µM for these compounds:
compound="O=C1c2c(O)ccc(O)c2C(=O)c2c(NCCNCCO)ccc(NCCNCCO)c21 [Mitoxantrone, Mitoxantrone dihydrochloride]" result=11.2%
compound="CN[C@@H]1C[C@@H](c2ccc(Cl)c(Cl)c2)c2ccccc21 [Indatraline hydrochloride]" result=1.66%

Query :: Name the recorded viability at 10 µM of the compound listed here: C1CCC(C(CC2CCCCN2)C2CCCCC2)CC1 (centres unmarked) [Perhexiline maleate]
Result :: 1.42%

Query :: Name the recorded viability at 10 µM of the compound listed here: C=C1C(=O)O[C@H]2[C@H]1CC/C(C)=C/CC[C@@]1(C)O[C@@H]21 [Parthenolide]
Result :: 71.4%

Query :: Name the recorded viability at 10 µM of the compound listed here: c1ccc2c(c1)OCC(C1=NCCN1)O2 (centres unmarked) [Idazoxan hydrochloride]
Result :: 71.2%

Query :: Name the recorded viability at 10 µM of the compound listed here: CSc1ccc2c(c1)N(CCC1CCCCN1C)c1ccccc1S2 (centres unmarked) [Thioridazine hydrochloride]
Result :: 5.89%

====

# Tested on: SFV
# Format: cell-based, Semliki Forest virus
Structures can show the parent of a compound that is named as a salt.
measured attribute: Time of Addition

Consider the reported Time of Addition for these molecules:
molecule="CCCCc1oc2ccccc2c1C(=O)c1cc(I)c(OCCN(CC)CC)c(I)c1 [Amiodarone, Amiodarone hydrochloride]" system_name=SFV measured_attribute="Time of Addition" result="Before fusion"
molecule=Cc1ccc(S(=O)(=O)N[C@@H](Cc2ccccc2)C(=O)CCl)cc1 system_name=SFV measured_attribute="Time of Addition" result="Before fusion"
molecule=O=[N+]([O-])c1ccc2c(c1)S(=O)(=O)C=C2 system_name=SFV measured_attribute="Time of Addition" result="After fusion"
molecule=CC(=O)/C=C1\C(=O)N(C)c2ccccc21 system_name=SFV measured_attribute="Time of Addition" result="After fusion"
molecule="CCN(CC)Cc1cc(Nc2ccnc3cc(Cl)ccc23)ccc1O [Amodiaquine, Amodiaquine dihydrochloride dihydrate]" system_name=SFV measured_attribute="Time of Addition" result="Before fusion"
molecule="O=C1c2c(O)ccc(O)c2C(=O)c2c(NCCNCCO)ccc(NCCNCCO)c21 [Mitoxantrone, Mitoxantrone dihydrochloride]" system_name=SFV measured_attribute="Time of Addition" result="Before and after fusion"

Query :: Name the recorded Time of Addition of the molecule listed here: O=C(c1ccc(OCCN2CCCCC2)cc1)c1c(-c2ccc(O)cc2)sc2cc(O)ccc12 [Raloxifene, Raloxifene hydrochloride]
Result :: Before and after fusion

Query :: Name the recorded Time of Addition of the molecule listed here: C=C1C(=O)O[C@H]2[C@H]1CC/C(C)=C/CC[C@@]1(C)O[C@@H]21 [Parthenolide]
Result :: Before and after fusion

====

Listed next: entries and their corresponding % viability (DENV-2 screen).
# System: Huh7 cells
# setup conditions: 10 µM
Give the value, in units of %, as a plain number.

Consider the reported % viability (DENV-2 screen) for these molecules:
molecule="CCSc1ccc2c(c1)N(CCCN1CCN(C)CC1)c1ccccc1S2.O=C(O)CC(O)C(=O)O.O=C(O)CC(O)C(=O)O [Thiethylperazine dimalate]" system_name="Huh7 cells" recorded_number=0.15
molecule=O=[N+]([O-])c1ccc2c(c1)S(=O)(=O)C=C2 system_name="Huh7 cells" recorded_number=60.49
molecule="C=CCN1CC[C@]23c4c5ccc(O)c4O[C@@H]2/C(=N/N=C2\\CC[C@@]4(O)C6Cc7ccc(O)c8c7[C@@]4(CCN6CC=C)[C@@H]2O8)CC[C@@]3(O)C1C5.Cl.Cl [Naloxonazine dihydrochloride]" system_name="Huh7 cells" recorded_number=111.66
molecule="Cl.Cl.Fc1ccc(C(OCCN2CCN(CCCc3ccccc3)CC2)c2ccc(F)cc2)cc1 [GBR 12909 dihydrochloride]" system_name="Huh7 cells" recorded_number=38.91

Proceed to the following item.
Query :: Give % viability (DENV-2 screen) only, for `CC(=O)/C=C1\C(=O)N(C)c2ccccc21` , using Huh7 cells data.
Result :: 90.32

====

Listed next: entries and their corresponding TC50 SFV (7h).
# Test system: HeLa Kyoto cells
# setup conditions: human
Where a name gives a salt, the structure may show the parent alone.

Query :: Name the recorded TC50 SFV (7h) of the compound listed here: O=C(Nc1ccc([N+](=O)[O-])cc1Cl)c1cc(Cl)ccc1O [Niclosamide]
Result :: >50 mM

Query :: Name the recorded TC50 SFV (7h) of the compound listed here: CCN(CC)Cc1cc(Nc2ccnc3cc(Cl)ccc23)ccc1O [Amodiaquine, Amodiaquine dihydrochloride dihydrate]
Result :: >50 mM

Query :: Name the recorded TC50 SFV (7h) of the compound listed here: O=C(c1ccc(OCCN2CCCCC2)cc1)c1c(-c2ccc(O)cc2)sc2cc(O)ccc12 [Raloxifene, Raloxifene hydrochloride]
Result :: >50 mM

Hey, just so you know, these numbers are from paper PMC6410080.
